Tested on: HBV viral production from HepAD38 cells
Test: Activity of test compounds on viral production from HepAD38 cells (viral load by qPCR of HBV core sequence in supernatant)
Assay type: cell-based
Conditions: Hepatitis B virus, 120 h, 5 days incubation, HBV DNA in supernatant by qPCR, top concentration 10 μM, read-out: Viral Load EC50 Activity range
pEC50: −log10 of the molar value.
OBSERVED PROPERTY: pEC50

>>> readout_value("CN1[C@H](C(=O)Nc2ccc(F)c(Cl)c2)C[C@H](c2cnc(-c3ccccc3)s2)NS1(=O)=O")
"> 6.00"
>>> readout_value("CN1[C@H](C(=O)Nc2ccc(F)c(Cl)c2)C[C@H](c2cc(-c3ccc(C(F)(F)F)nc3)cs2)NS1(=O)=O")
"> 6.00"
>>> readout_value("CN1[C@H](C(=O)Nc2ccc(F)c(Cl)c2)C[C@H](c2ccc(F)cn2)NS1(=O)=O")
"> 6.00"
>>> readout_value("CN1[C@@H](C(=O)Nc2ccc(F)c(Cl)c2)C[C@@H](c2cc(Cl)c(-c3cnn(C)c3)s2)NS1(=O)=O")
"< 5.30"

query: What measured pEC50 is associated with CN1[C@H](C(=O)Nc2ccc(F)c(Cl)c2)C[C@H](c2cc(-c3cn[nH]c3)cs2)NS1(=O)=O on HBV viral production from HepAD38 cells?
result: > 6.00

query: Entry to check: CN1[C@@H](C(=O)Nc2ccc(F)c(Cl)c2)C[C@@H](c2ccc(-c3ccc(C#N)c(F)c3)s2)NS1(=O)=O
result: < 5.30

query: What do we get for CN1[C@@H](C(=O)Nc2ccc(F)c(Cl)c2)C[C@@H](c2ncc(-c3c[nH]cn3)s2)NS1(=O)=O (stereo in doubt) ?
result: 5.30 to 6.00

Data origin: patent US11078170B2
